Sourced from paper PMC11676667

Listed compounds paired with reported Tmax
test: Plasma pharmacokinetics after single oral dose of Δ8-THCV in MCT oil (LC-MS/MS, non-compartmental analysis); assay type: in vivo, human; conditions: human, plasma, po, 100 mg, 100 mg single oral Δ8-THCV in MCT oil; plasma; Mean (±SD); read-out: tmax
Field: numeric (h). Do not append units.

Recorded results for 5 compounds are shown here.
CCCc1cc(O)c2c(c1)OC(C)(C)[C@@H]1CCC(C)=C[C@@H]21 [Δ9-THCV, Δ9-tetrahydrocannabivarin] :: 4.6
CCCc1cc(O)c2c(c1)OC(C)(C)[C@@H]1CC=C(C(=O)O)C[C@@H]21 [Δ8-THCV-COOH, 11-nor-9-carboxy-Δ8-THCV] :: 4.7
CCCc1cc(O)c2c(c1)OC(C)(C)[C@@H]1CC=C(CO)C[C@@H]21 (racemic) [11-OH-Δ8-THCV, (±)-11-hydroxy-Δ8-THCV] :: 4.2
CCCc1cc(O)c2c(c1)OC(C)(C)[C@@H]1CC=C(C)C[C@@H]21 [Δ8-THCV, Δ8-tetrahydrocannabivarin] :: 4.2
CCCCCc1cc(O)c2c(c1)OC(C)(C)[C@@H]1CC=C(C(=O)O)CC21 (single isomer, unassigned; (+)) [Δ8-THC-COOH, (+)-11-nor-Δ8-THC-9-carboxylic acid] :: 5

Now for a further compound.
What the record says about CCCc1cc(O)c2c(c1)OC(C)(C)[C@@H]1CCC(C(=O)O)=C[C@@H]21 [Δ9-THCV-COOH, 11-nor-9-carboxy-Δ9-THCV] : Tmax is 4.5

====

Listed compounds paired with reported AUC(0-t)
test: Plasma pharmacokinetics after single oral dose of Δ8-THCV in MCT oil (LC-MS/MS, non-compartmental analysis); format: in vivo, human; settings: human, plasma, po, 200 mg, 200 mg single oral Δ8-THCV in MCT oil; Mean (±SD)
Field: numeric (µg·h/mL). Do not append units.

What the record says about CCCc1cc(O)c2c(c1)OC(C)(C)[C@@H]1CC=C(C)C[C@@H]21 [Δ8-THCV, Δ8-tetrahydrocannabivarin] : AUC(0-t) is 0.168

What the record says about CCCc1cc(O)c2c(c1)OC(C)(C)[C@@H]1CCC(C)=C[C@@H]21 [Δ9-THCV, Δ9-tetrahydrocannabivarin] : AUC(0-t) is 0.0048

What the record says about CCCc1cc(O)c2c(c1)OC(C)(C)[C@@H]1CC=C(CO)C[C@@H]21 (racemic) [11-OH-Δ8-THCV, (±)-11-hydroxy-Δ8-THCV] : AUC(0-t) is 0.0308

What the record says about CCCCCc1cc(O)c2c(c1)OC(C)(C)[C@@H]1CC=C(C(=O)O)CC21 (single isomer, unassigned; (+)) [Δ8-THC-COOH, (+)-11-nor-Δ8-THC-9-carboxylic acid] : AUC(0-t) is 0.0081

What the record says about CCCc1cc(O)c2c(c1)OC(C)(C)[C@@H]1CC=C(C(=O)O)C[C@@H]21 : AUC(0-t) is 6.96

What the record says about CCCc1cc(O)c2c(c1)OC(C)(C)[C@@H]1CCC(C(=O)O)=C[C@@H]21 : AUC(0-t) is 0.201

====

Experiment: Plasma pharmacokinetics after single oral dose of Δ8-THCV in MCT oil (LC-MS/MS, non-compartmental analysis)
Assay type: in vivo, human
Settings: human, plasma, oral, 200 mg, 2 h; 200 mg Δ8-THCV dose; Mean (SD, %CV)
Method: The study was a two-phase, dose-ranging, placebo-controlled trial in 21 healthy participants to assess the safety, tolerability, PK, and PD of an oral formulation of Δ8-THCV. A detailed description of the study was published elsewhere. […] Plasma samples were analyzed using a validated high-performance liquid chromatography–tandem mass spectrometry (LC-MS/MS) assay. […] For the PK analysis, concentrations below the lower limit of quantification were set to 0 ng/mL. […]
assayMetric: concentration at 2 h

CCCCCc1cc(O)c2c(c1)OC(C)(C)[C@@H]1CC=C(C(=O)O)CC21 (single isomer, unassigned; (+)) [Δ8-THC-COOH, (+)-11-nor-Δ8-THC-9-carboxylic acid] :: 0.4 ng/mL

What the record says about CCCc1cc(O)c2c(c1)OC(C)(C)[C@@H]1CCC(C(=O)O)=C[C@@H]21 : concentration at 2 h is 19.1 ng/mL

What the record says about CCCc1cc(O)c2c(c1)OC(C)(C)[C@@H]1CC=C(C)C[C@@H]21 [Δ8-THCV, Δ8-tetrahydrocannabivarin] : concentration at 2 h is 21.4 ng/mL
